Catalogue of IC50 readings, one per entry.
Target: JAK3 (Homo sapiens, UniProt P52333)
Sequence (P52333 1-1124): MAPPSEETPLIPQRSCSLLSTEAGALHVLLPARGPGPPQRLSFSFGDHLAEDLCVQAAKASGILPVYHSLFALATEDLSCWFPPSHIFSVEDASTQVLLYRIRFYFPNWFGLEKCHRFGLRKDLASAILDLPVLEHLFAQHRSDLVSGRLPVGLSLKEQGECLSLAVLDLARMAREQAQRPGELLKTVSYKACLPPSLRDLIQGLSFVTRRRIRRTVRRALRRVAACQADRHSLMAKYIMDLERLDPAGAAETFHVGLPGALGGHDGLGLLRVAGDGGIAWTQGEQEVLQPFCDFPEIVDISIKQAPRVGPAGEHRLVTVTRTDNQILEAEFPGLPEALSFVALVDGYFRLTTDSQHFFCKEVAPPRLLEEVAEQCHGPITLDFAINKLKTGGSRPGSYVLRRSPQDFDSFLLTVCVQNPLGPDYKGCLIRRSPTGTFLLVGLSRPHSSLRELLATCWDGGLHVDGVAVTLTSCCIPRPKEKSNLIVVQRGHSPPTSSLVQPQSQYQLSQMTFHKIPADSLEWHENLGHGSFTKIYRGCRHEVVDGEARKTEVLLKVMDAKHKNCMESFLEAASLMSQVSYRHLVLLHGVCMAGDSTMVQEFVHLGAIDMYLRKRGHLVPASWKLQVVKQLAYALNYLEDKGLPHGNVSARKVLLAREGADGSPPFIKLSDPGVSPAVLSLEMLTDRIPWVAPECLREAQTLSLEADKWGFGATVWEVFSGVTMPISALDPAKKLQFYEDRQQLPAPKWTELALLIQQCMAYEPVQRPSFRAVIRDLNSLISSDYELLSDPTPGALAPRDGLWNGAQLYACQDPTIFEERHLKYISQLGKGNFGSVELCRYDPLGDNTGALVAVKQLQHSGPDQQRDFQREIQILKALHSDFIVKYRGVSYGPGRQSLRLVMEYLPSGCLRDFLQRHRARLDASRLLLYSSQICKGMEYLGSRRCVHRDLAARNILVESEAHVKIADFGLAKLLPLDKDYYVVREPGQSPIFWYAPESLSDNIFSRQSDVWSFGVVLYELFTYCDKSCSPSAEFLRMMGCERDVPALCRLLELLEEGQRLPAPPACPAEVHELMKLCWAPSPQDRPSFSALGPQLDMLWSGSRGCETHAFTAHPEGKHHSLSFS
Assay: JAK3 enzymatic kinase inhibition assay
Type: biochemical
Conditions: read-out: Kinase inhibitory activities given in IC50 (nM), JAK3
Return type: number; implicit unit nM.

C=CC(=O)N1CCC23CCN(c4ncnc5[nH]ccc45)C2CCC13 (centres unmarked)	9

We next turn to a different compound, shown below.
Exam item: Reported IC50 for N#CCC(=O)N1CCC23CCN(c4ncnc5[nH]ccc45)C2CCC13 (centres unmarked) : what is it?
Marked response: 29
